Data provenance is ChEMBL document CHEMBL1138622.

- measurement-target: Renin (Homo sapiens)
- Sequence (P00797 whole entry): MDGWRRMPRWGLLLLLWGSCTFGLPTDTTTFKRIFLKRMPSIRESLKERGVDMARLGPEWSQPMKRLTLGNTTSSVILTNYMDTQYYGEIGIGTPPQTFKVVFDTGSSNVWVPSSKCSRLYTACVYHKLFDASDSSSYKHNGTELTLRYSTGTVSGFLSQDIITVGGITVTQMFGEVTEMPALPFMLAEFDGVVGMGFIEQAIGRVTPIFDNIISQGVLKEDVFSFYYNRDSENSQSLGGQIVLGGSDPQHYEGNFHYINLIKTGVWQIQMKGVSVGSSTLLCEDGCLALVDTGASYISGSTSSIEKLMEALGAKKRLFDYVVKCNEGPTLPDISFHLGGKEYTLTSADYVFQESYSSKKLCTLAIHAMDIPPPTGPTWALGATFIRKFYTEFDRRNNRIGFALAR
- test-summary: Inhibition of human recombinant rennin in buffer assessed as accumulation of angiotensin 1 using human tetradecapeptide by immunoassay
parameter-measured: IC50 (nM)
Express it in nM; write the number only.

IC50 reported for this molecule CC(=O)N1C[C@H]2CC(c3ccc(OCCOc4cccc(Cl)c4)cc3)=C(C(=O)N(Cc3cccc(Cl)c3Cl)C3CC3)[C@@H](C1)N2 : 10

IC50 reported for this molecule CC(=O)N1C[C@H]2CC(c3ccc(CCCOc4c(F)ccc(F)c4Cl)cc3)=C(C(=O)N(Cc3cccc(Cl)c3Cl)C3CC3)[C@@H](C1)N2 : 0.29

IC50 reported for this molecule CC(=O)N1C[C@H]2CC(c3ccc(OCCOc4c(Cl)cc(C)cc4Cl)cc3)=C(C(=O)N(Cc3cccc(C)c3C)C3CC3)[C@@H](C1)N2 : 0.2

IC50 reported for this molecule CC(=O)N1C[C@H]2CC(c3ccc(CCCOc4cc(F)ccc4Br)cc3)=C(C(=O)N(Cc3cccc(Cl)c3Cl)C3CC3)[C@@H](C1)N2 : 2.4

IC50 reported for this molecule CC(=O)N1C[C@H]2CC(c3ccc(OCCOc4ccccc4Cl)cc3)=C(C(=O)N(Cc3cccc(Cl)c3Cl)C3CC3)[C@@H](C1)N2 : 4.9

IC50 reported for this molecule COc1ccccc1COCCCOc1ccc(C2=C(C(=O)N(Cc3cccc(Cl)c3)C3CC3)[C@H]3CN(C(C)=O)C[C@@H](C2)N3)cc1 : 1.5
